Biological target: recombinant human ALK5 (TGF-βR1) protein (Homo sapiens)
Construct: purchased Life Technologies PR9075A
Assay: Biochemical ALK5 (TGF-βR1) assay to measure pKi (LANCE Ultra ULight kinase assay)
Details: apparent pKi from pIC50 by Cheng-Prusoff, read-out: ALK5 pKi (converted)
# key: entry, value: Ki

Cc1cccc(-c2[nH]cnc2-c2ccc3ncc(C(=O)OC[C@H]4CC[C@@H](N)CC4)cc3c2)n1 : 39.8 to 316 pM
Cc1cccc(-c2[nH]cnc2-c2ccc3ncc(C(=O)OC[C@@H]4CCCNC4)cc3c2)n1 : 39.8 to 316 pM
CNCCn1cc(-c2cnc3ccc(-c4c[nH]nc4-c4ccc(F)c(C)n4)cc3c2)cn1 : < 31.6 pM
CNCCn1cc(-c2cnc3ccc(-c4c(-c5cccc(C)n5)[nH]c5ccccc45)cc3c2)cn1 : 39.8 to 316 pM
Cc1cccc(-c2n[nH]cc2-c2ccc3ncc(NC4CCCNC4)cc3n2)n1 (centres unmarked) : 39.8 to 316 pM
Cc1cccc(-c2n[nH]cc2-c2ccc3ncc(-c4c[nH]nn4)cc3n2)n1 : < 31.6 pM
Cc1cccc(-c2n[nH]cc2-c2ccc3ncc(-c4cnn(CCN(C)C)c4)cc3n2)n1 : < 31.6 pM

Alright, here's another compound for you.
# input Identify the measured Ki of `Cc1cccc(-c2n[nH]cc2-c2ccc3nccc(C(=O)NCCN4CCN(C(C)C)CC4)c3n2)n1` for recombinant human ALK5 (TGF-βR1) protein (Homo sapiens).
# output 3980 to 31600 pM

====

Biological target: recombinant human ALK5 (TGF-βR1) protein (Homo sapiens, UniProt P36897)
Construct: purchased Life Technologies PR9075A
Sequence (P36897 34-503): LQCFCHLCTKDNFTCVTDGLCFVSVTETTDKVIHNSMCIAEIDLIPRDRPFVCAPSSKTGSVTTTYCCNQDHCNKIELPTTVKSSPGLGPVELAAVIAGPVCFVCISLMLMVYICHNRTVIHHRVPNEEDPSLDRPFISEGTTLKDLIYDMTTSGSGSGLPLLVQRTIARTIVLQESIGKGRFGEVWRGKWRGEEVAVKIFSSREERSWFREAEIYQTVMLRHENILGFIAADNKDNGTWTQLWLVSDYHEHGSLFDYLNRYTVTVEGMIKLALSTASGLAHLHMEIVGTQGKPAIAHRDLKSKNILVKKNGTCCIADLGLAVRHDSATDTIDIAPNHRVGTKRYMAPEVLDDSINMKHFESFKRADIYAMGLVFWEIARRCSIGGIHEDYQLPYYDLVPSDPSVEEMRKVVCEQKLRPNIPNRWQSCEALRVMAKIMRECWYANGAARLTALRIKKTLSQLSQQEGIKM
Experiment: Biochemical ALK5 (TGF-βR1) assay to measure pKi (LANCE Ultra ULight kinase assay)
Details: apparent pKi from pIC50 by Cheng-Prusoff, read-out: ALK5 pKi (converted)
Ki values by entry

Cc1cccc(-c2nn3c(c2-c2ccc4ncc(-c5cn[nH]c5)cc4c2)CNCC3)n1 : 39.8 to 316 pM
CNCCn1cc(-c2cnc3ccc(-c4c[nH]nc4-c4cccc(C)n4)nc3c2)cn1 : < 31.6 pM
COC(=O)c1cnc2ccc(-c3cn[nH]c3-c3cccc(C)n3)nc2c1 : 39.8 to 316 pM
Cc1cccc(-c2n[nH]c(NCCN3CCOCC3)c2-c2ccc3ncc(-c4ccncc4)cc3n2)n1 : 39.8 to 316 pM
Cc1cccc(-c2n[nH]cc2-c2ccc3ncc(-c4nnn5c4CNCC5)cc3n2)n1 : 39.8 to 316 pM

# input Ki lookup needed for `Cc1cccc(-c2[nH]cnc2-c2ccc3ncc(-c4ncc(C(=O)O[C@@H]5CCNC5)s4)cc3c2)n1` , thanks.
# output 39.8 to 316 pM

# input Endpoint output: Ki of `Cc1cccc(-c2[nH]cnc2-c2ccc3ncc(C(=O)OCCN4CCC5(CC4)CNC5)cc3c2)n1` . Value?
# output 39.8 to 316 pM

# input Need Ki, item `Cc1cccc(-c2n[nH]cc2-c2ccc3ncc(-c4ncc5n4CCN5)cc3n2)n1`
# output 39.8 to 316 pM

# input Find the recorded Ki belonging to `Cc1cccc(-c2[nH]ncc2-c2ccc3nccc(C(=O)OCCC4CNC4)c3c2)n1` and report it.
# output 398 to 3160 pM

# input Sample `Cc1cccc(-c2n[nH]cc2-c2ccc3ncc(-c4ccc(=O)n(C)c4)cc3n2)n1` — what was its Ki?
# output < 31.6 pM

# input Requested read-out: Ki. Entry: `Cc1cccc(-c2n[nH]cc2-c2ccc3ncc(-c4ncn5c4CNCC5)cc3n2)n1`
# output 39.8 to 316 pM

# input Requested field: Ki. Item: CCOC(=O)[C@H](C)NP(=O)(OCc1cnc2ccc(-c3cn[nH]c3-c3cccc(C)n3)nc2c1)Oc1ccccc1 (stereo partly shown)
# output 39.8 to 316 pM

# input Which Ki reading was recorded for the molecule `Cc1cccc(-c2n[nH]cc2-c2ccc3nccc(CN4CCN(CC(=O)O)CC4)c3n2)n1` ?
# output 398 to 3160 pM

# input Which value of Ki has been reported for `Cc1cccc(-c2n[nH]cc2-c2ccc3ncc(N4CCC[C@H](N(C)C)C4)cc3n2)n1` in the records?
# output 39.8 to 316 pM
